For each entry below, report its pIC50 value.
TESTED SYSTEM: TNKS2 (Homo sapiens (Human), UniProt Q9H2K2)
Sequence (Q9H2K2 whole entry): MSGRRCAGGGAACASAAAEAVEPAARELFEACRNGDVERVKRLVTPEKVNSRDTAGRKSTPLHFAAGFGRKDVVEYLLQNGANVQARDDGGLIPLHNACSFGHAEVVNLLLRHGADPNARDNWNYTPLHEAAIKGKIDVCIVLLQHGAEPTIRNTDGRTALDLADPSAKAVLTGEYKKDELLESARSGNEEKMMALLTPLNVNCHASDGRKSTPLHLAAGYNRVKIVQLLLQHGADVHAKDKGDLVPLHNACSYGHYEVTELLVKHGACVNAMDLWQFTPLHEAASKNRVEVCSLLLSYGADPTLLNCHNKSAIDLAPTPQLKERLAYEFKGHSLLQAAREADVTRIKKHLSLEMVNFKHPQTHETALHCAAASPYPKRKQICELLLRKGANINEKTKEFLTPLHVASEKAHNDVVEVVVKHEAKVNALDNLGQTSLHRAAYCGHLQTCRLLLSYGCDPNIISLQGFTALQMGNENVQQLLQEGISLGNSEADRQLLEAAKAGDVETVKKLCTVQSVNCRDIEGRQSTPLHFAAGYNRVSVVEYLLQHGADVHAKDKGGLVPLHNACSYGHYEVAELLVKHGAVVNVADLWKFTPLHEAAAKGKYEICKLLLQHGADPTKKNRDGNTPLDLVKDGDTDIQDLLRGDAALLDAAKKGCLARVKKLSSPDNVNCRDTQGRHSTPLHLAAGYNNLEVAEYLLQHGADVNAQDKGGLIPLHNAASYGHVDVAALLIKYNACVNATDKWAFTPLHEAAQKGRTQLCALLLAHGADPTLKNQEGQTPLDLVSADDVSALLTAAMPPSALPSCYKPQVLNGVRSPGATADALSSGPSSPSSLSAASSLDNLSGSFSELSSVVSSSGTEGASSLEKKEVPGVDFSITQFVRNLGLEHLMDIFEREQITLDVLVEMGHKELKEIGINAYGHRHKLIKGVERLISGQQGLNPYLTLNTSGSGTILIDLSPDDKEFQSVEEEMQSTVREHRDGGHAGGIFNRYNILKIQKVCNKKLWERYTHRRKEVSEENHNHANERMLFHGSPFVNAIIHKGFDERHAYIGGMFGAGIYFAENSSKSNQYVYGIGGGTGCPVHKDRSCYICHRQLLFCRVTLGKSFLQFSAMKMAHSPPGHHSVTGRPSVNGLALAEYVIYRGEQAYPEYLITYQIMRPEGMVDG
PROTOCOL NOTES: Biochemical IC50 TNKS2
Schema: pIC50 number; meaning minus log10 of the concentration expressed in molar units.

# query: pIC50 | item CCOc1ccc(-c2nnc([C@H]3C[C@H](NC(=O)c4cc[n+]([O-])c5cc(OC)cnc45)C3)n2-c2ccccc2F)nc1 | system: TNKS2 (Homo sapiens (Human), UniProt Q9H2K2)
8.46

# query: pIC50 | item CCOc1ccc(-c2nnc([C@H]3C[C@H](NC(=O)c4cc[n+]([O-])c5cc(O)cnc45)C3)n2-c2ccccc2F)nc1 | system: TNKS2 (Homo sapiens (Human), UniProt Q9H2K2)
8.77

# query: pIC50 | item CCOc1ccc(-c2nnc([C@H]3C[C@H](NC(=O)c4cccc5c4ccc[n+]5[O-])C3)n2-c2ccccc2F)nc1 | system: TNKS2 (Homo sapiens (Human), UniProt Q9H2K2)
6.01
